# TARGET UNDER TEST: T1, LynD Y67D (Lyngbya sp. PCC 8106, Y67D)
# T1 chain: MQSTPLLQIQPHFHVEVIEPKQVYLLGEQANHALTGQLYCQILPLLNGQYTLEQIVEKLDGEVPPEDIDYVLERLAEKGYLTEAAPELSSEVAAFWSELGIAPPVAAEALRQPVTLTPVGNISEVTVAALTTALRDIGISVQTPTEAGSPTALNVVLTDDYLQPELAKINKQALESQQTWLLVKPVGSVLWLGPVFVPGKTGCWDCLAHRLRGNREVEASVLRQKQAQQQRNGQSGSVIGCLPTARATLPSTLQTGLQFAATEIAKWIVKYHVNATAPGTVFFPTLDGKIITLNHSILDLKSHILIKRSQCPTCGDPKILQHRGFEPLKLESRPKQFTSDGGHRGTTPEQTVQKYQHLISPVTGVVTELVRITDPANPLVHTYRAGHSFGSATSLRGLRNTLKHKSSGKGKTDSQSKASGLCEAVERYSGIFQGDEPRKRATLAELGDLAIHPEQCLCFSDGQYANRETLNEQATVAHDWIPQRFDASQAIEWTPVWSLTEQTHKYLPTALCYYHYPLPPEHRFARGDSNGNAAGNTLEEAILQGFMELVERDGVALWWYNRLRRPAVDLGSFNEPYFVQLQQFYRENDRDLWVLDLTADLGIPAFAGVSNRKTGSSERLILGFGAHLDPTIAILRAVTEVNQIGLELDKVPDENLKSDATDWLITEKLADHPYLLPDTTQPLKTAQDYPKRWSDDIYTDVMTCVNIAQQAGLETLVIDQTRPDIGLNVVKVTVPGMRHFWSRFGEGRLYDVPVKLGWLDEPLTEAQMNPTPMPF
# ASSAY SUMMARY: ITC
Entries and their pKd values follow.
On this scale, pKd is minus log10 of a concentration expressed in M (mol/L).

| BINDER | pKd |
| --- | --- |
| PatE′ (modified PatE precursor peptide with full leader and a single core peptide ITACITFC) (peptide) MDKKNILPQQGQPVIRLTAGQLSSQLAELSEEALGDAGLEASKITACITFCAYDGELE | 4.89 |

# input for lookup
Given PatE′ L26R (peptide) MDKKNILPQQGQPVIRLTAGQLSSQRAELSEEALGDAGLEASKITACITFCAYDGELE , state its recorded pKd. 4.82
